run description: Water thermodynamic solubility by HPLC
Type: physicochemical
conditions: ultrapure water, 25 °C, thermodynamic from solid
measured parameter: solubility at 24 h (µM)
Please state the figure in µM; there is no need to write the unit.

# input For the molecule shown here, COC(=O)[C@H](CO)NC(C)=C1C(=O)C=C2Oc3c(C(C)=O)c(O)c(C)c(O)c3[C@]2(C)C1=O [(9bS,15S)-1] , give the reported solubility at 24 h.
# output 150
